Tested on: HBV rcDNA in HepDE19 cells
Measurement protocol: HepDE19 assay with bDNA quantitation of HBV rcDNA
Format: cell-based, hepatitis B virus
Run parameters: Hepatitis B virus, HepDE19, HepDE19 assay, inhibition of rcDNA formation, bDNA quantitation; read-out: DE-19bDNA EC50
Quick reference: pEC50 of the listed items.
The quantity pEC50 is defined as the negative base-10 logarithm of the molar concentration.

For record CCn1nc(Cl)c2cc(C(=O)N(C)[C@@H]3COCc4[nH]c(=O)c5cc(F)c(F)cc5c43)ccc21 the listed pEC50 is 7.10

Continuing:
Query CN(C(=O)c1c[nH]c(=O)c(F)c1)[C@@H]1COCc2[nH]c(=O)c3cc(F)c(F)cc3c21 yields pEC50 of 4.90

pEC50 reading for CN(C(=O)c1cc2cc(Br)cnc2[nH]1)[C@@H]1COCc2[nH]c(=O)c3cc(F)c(F)cc3c21 : 6.59

Looking up CN(C(=O)c1cc2c(CO)cc(F)cc2[nH]1)[C@@H]1COCc2[nH]c(=O)c3cc(F)c(F)cc3c21 , I see its pEC50 listed as 7.70

Entry CN([C@@H]1COCc2[nH]c(=O)c3cc(F)c(F)cc3c21)S(=O)(=O)c1cccc(C#N)c1 , pEC50 reported as 5.26

molecule CN(C(=O)c1cc(F)c(Br)cc1F)[C@@H]1COCc2[nH]c(=O)c3cc(F)c(F)cc3c21 , pEC50 observed: 6.77
